Tested on: T. vaginalis
METHOD: Miniaturised Mtz drug-sensitivity assay, 384-well plates
Assay type: cell-based
RUN_CONDITIONS: Trichomonas vaginalis, 36 h, C9: 384-well, 500 cells/well, 50 µL, 36 h
ATTRIBUTE_MEASURED: IC50 (nM)
Form entry: value (nM) — number only.

The reported IC50 of the compound Cc1ncc([N+](=O)[O-])n1CCO was 703

====

Record form. Attribute: T.vaginalis_%inb_Rep1. Fill in for each entry.
Test system: Trichomonas vaginalis G3 trophozoites
RUN_CONDITIONS: HTS, parasite screen at 1 µg/mL, replicate 1
Answer in %, number only, no unit symbol.

# T.vaginalis_%inb_Rep1 of COc1c2c(cc3c1c(=O)c1ccccc1n3C)OCO2 [Evoxanthine] = 15.29

T.vaginalis_%inb_Rep1 in this record for Cn1ncnc2c(=O)n(C)c(=O)nc1-2 [Toxoflavin, toxoflavin, reference compound] : 5.72

Recorded T.vaginalis_%inb_Rep1 (molecule CCCNC[C@]1(O)[C@H](C)O[C@@H](O[C@H]2[C@H](C)[C@@H](O[C@@H]3O[C@H](C)C[C@H](N(C)C)[C@H]3O)[C@](C)(O)C[C@@H](C)CN[C@H](C)[C@@H](O)[C@](C)(O)[C@@H](CC)OC(=O)[C@@H]2C)C[C@@]1(C)OC [Tulathromycin] ): 10.12

The reported T.vaginalis_%inb_Rep1 of the molecule CCOCCO[C@@H]1CC[C@@H](C[C@@H](C)[C@@H]2CC(=O)[C@H](C)/C=C(\C)[C@@H](O)[C@@H](OC)C(=O)[C@H](C)C[C@H](C)/C=C/C=C/C=C(\C)[C@@H](OC)C[C@@H]3CC[C@@H](C)[C@@](O)(O3)C(=O)C(=O)N3CCCC[C@H]3C(=O)O2)C[C@H]1OC [Umirolimus] was 9.81

The measured T.vaginalis_%inb_Rep1 associated with C/C=C/[C@@H]1C=C[C@@H]2C[C@H](C)CC[C@H]2[C@]1(C)/C(O)=C1/C(=O)[C@@H](CO)N(C)C1=O [Epiequisetin] reads 11.85

Record COc1c(Cl)c(O)c(Cl)c(C)c1C(=O)O[C@H]1[C@H](O)C[C@H](O[C@H]2[C@@H](O)CC(=O)O[C@@H]2C)O[C@@H]1C [Flambalactone] , field T.vaginalis_%inb_Rep1: 13.89

# T.vaginalis_%inb_Rep1 of CNC[C@@H]1CC[C@@H](N)[C@@H](O[C@H]2[C@H](O)[C@@H](O[C@H]3OC[C@](C)(O)[C@H](NC)[C@H]3O)[C@H](N)C[C@@H]2N)O1 [Gentamicin C2b] = 11.00

Recorded T.vaginalis_%inb_Rep1 (molecule CC[C@H]1OC(=O)[C@H](C)[C@@H](O[C@H]2C[C@@](C)(OC)[C@@H](O)[C@H](C)O2)[C@H](C)[C@@H](O[C@@H]2O[C@H](C)C[C@H](N(C)C)[C@H]2O)[C@](C)(O)C[C@@H](C)C(=NO)[C@H](C)[C@@H](O)[C@]1(C)O [Erythromycin A oxime] ): 3.82

// Cc1c2c(c(O)c3c(O)cccc13)C(=O)C1(O)C(O)=C(C(N)=O)C(=O)C(N(C)C)C1C2.Cl (centres unmarked) [Epianhydrotetracycline hydrochloride] : T.vaginalis_%inb_Rep1 value = 8.78

Form: molecule = CO[C@H]1C[C@H](O[C@H]2[C@H](C)O[C@@H](O[C@@H]3/C(C)=C/C[C@@H]4C[C@@H](C[C@]5(C=C[C@H](C)[C@@H](C6CCCCC6)O5)O4)OC(=O)[C@H]4C=C(C)[C@@H](O)[C@H]5OC/C(=C\C=C\[C@@H]3C)[C@@]45O)C[C@@H]2OC)O[C@@H](C)[C@@H]1O [Doramectin, epi-] ; T.vaginalis_%inb_Rep1 = 16.13

Field T.vaginalis_%inb_Rep1 (entry COc1cc(O)c2c(=O)oc3c(O)c(OC)cc(C)c3c2c1 [Graphislactone A] ) reads 13.44
